Target: CETP (Homo sapiens, UniProt P11597)
Sequence (P11597 18-493): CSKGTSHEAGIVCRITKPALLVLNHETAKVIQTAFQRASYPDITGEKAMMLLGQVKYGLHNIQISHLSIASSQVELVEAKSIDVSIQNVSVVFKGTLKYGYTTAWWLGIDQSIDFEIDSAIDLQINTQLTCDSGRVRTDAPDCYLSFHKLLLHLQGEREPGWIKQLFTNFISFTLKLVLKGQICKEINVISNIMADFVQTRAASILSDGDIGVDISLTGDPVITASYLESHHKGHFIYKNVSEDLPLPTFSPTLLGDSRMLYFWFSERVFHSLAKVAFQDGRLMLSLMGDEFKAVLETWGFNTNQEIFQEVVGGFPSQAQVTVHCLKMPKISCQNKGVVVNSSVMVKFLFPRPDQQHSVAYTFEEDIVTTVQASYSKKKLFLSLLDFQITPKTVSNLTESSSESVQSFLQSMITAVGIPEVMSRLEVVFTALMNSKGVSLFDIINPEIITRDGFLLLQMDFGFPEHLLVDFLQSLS
Assay: In vitro CETP activity inhibitory effect in whole plasma
Format: biochemical
Design: Plasma containing [^3H]CE-HDL3 (600,000 dpm/ml) was prepared by adding donor lipoprotein obtained in the above (1) to plasma from healthy subjects; from tissue; host or cells: whole plasma of healthy subjects
Conditions: plasma from healthy subjects containing [3H]CE-HDL3, incubated 4 hours at 37° C.; read-out: CETP activity inhibition in whole plasma IC50
Experimental: The fraction thus obtained was dialyzed against a PBS solution [10 mM Na2HPO4/10 mM NaH2PO4/0.15 M NaCl/1 mM EDTA (pH 7.4)]. Then, tritium-labeled cholesterol (10 nM) (50.3 Ci/mM) was dissolved in 95% ethanol and added gradually to the above HDL3 fraction under stirring. The solution was incubated for 18 hours at 37° C. […] After incubation, KBr was added and specific gravity was adjusted to d=1.21 g/ml. […] Based on the inhibition rate (%) of CETP activity, IC50 value of each sample was calculated.
PROPERTY LABEL: IC50

Reference set, count: 3
Which IC50 value belongs to CCC(CC)CC1(C(=O)Nc2ccccc2SC(=O)C2CCN(C(C)=O)CC2)CCCCC1 [Example 28] ?
6 µM

Give its IC50 value. Item: CC(C)(C)C(=O)Sc1cc(Cl)c(Cl)cc1NC(=O)[C@H]1CC[C@H](C2CCCCC2)CC1 [Example 66-31]
27 µM

Consider the compound CC(C)CCC1(C(=O)Nc2cc(C(F)(F)F)ccc2SC(=O)C(C)(C)C)CCCCC1 [Example 52] and give its measured IC50.
8 µM

Continue with the compound presented below.
Looking for the measured IC50 of CCCCC1(C(=O)Nc2cc(Cl)c(Cl)cc2SC(=O)C(C)(C)C)CCCCC1 [Example 66-29] , can you help?
7 µM
